test system: HepG2; assay: cytotoxicity call (relative viability < 0.9); settings: 10 µM
The whole screen tested about 39,000 compounds, of which about 3,300 (8.5%) were called active. For the sample, actives were picked, then their nearest neighbours and some compounds at random.
Your response should consist of one outcome taken from active, inactive

[ask] Short answer needed: outcome of this test for C[C@H](CO)N1C[C@H](C)[C@@H](CN(C)S(C)(=O)=O)Oc2c(NC(=O)CCCCCC(=O)Nc3ccccc3N)cccc2C1=O ?
[reply] inactive

[ask] Short answer needed: outcome of this test for Cc1c(-c2ccc(C(N)=O)c3[nH]c4cc(C(C)(C)O)ccc4c23)cccc1-n1cnc2ccccc2c1=O ?
[reply] active

[ask] Hello, I am checking results. What call was entered for CCC1OC(=O)C(C)C(OC2CC(C)(OC)C(O)C(C)O2)C(C)C(OC2OC(C)CC(N(C)C)C2O)C(C)(O)CC(C)C(=O)C(C)C(O)C1(C)O (stereo not drawn) ?
[reply] inactive

[ask] In this assay, the call recorded for CN(C)S(=O)(=O)N1CCO[C@@H]2CN(c3ncc(F)cn3)C[C@@H]21 was what?
[reply] inactive

[ask] Call for entry CCOC(=O)c1cc2c(c(-c3ccccc3)n1)[C@@H](CCO[Si](C)(C)C(C)(C)C)N([S@](=O)C(C)(C)C)C2 :
[reply] inactive

[ask] In this assay, the call recorded for CC(C)NC(=O)Nc1ccc2c(c1)CC(=O)N([C@H](C)CO)C[C@@H](C)[C@@H](CN(C)S(=O)(=O)c1ccccc1)O2 was what?
[reply] inactive

[ask] # lookup: test call for Cn1cc(CO)cn1
[reply] inactive

[ask] State the result this test recorded for C[C@H]1CN([C@@H](C)CO)C(=O)Cc2cc(NC(=O)Nc3cc(Cl)cc(Cl)c3)ccc2O[C@H]1CN(C)S(=O)(=O)c1ccc(Oc2ccccc2)cc1 .
[reply] active

[ask] Please let me know the test result on file for O=C(C[C@H]1C=C[C@H](NC(=O)CN2CCOCC2)[C@@H](CO)O1)NCCc1ccccc1 .
[reply] inactive

[ask] I'd appreciate the recorded outcome for COc1ccc(NC(=O)Nc2ccc3c(c2)CC(=O)N([C@H](C)CO)C[C@@H](C)[C@@H](CN(C)S(=O)(=O)c2cn(C)cn2)O3)cc1 from this test.
[reply] inactive

[ask] Short answer needed: outcome of this test for c1ccc(-n2ncc3c2ncn2nnnc32)cc1 ?
[reply] inactive

[ask] Recorded call for COc1ccc(NC(=O)N(C)C[C@@H]2Oc3c(NC(=O)C4CCOCC4)cccc3C(=O)N([C@H](C)CO)C[C@@H]2C)cc1 ?
[reply] inactive

[ask] Which outcome did this test record for the molecule CCCNC(=O)c1cc2c(c(-c3cccc(-c4cccc(F)c4)c3)n1)[C@H](CCO)N([S@@](=O)C(C)(C)C)C2 ?
[reply] inactive

[ask] Which outcome did this test record for the molecule C[C@H](CO)N1C[C@H](C)[C@H](CN(C)Cc2ccccn2)Oc2ncc(C#Cc3ccc(F)cc3)cc2C1=O ?
[reply] inactive

[ask] Check the results log: what was the call for COc1cccc(-c2cnc3c(c2)C(=O)N([C@H](C)CO)C[C@H](C)[C@H](CN(C)S(=O)(=O)c2cccc(F)c2)O3)c1 ?
[reply] inactive

[ask] Given C[C@H]1CN([C@@H](C)CO)C(=O)Cc2cc(NC(=O)Nc3ccc(C#N)cc3)ccc2O[C@H]1CN(C)S(=O)(=O)c1ccc(Oc2ccccc2)cc1 , state the outcome it received in this test.
[reply] inactive

[ask] Can you look up the reported call for CCNC(=O)c1cc2c(c(-c3cccc(-c4cccc(F)c4)c3)n1)[C@@H](CCO)N([S@](=O)C(C)(C)C)C2 for me?
[reply] inactive

[ask] What was the test verdict on Cc1ccc(S(=O)(=O)Nc2ccc3c(c2)C(=O)N([C@H](C)CO)C[C@@H](C)[C@H](CN(C)C(=O)NC2CCCCC2)OCCCC[C@H](C)O3)cc1 ?
[reply] inactive

[ask] Query: recorded result category for C[C@H]1CN([C@@H](C)CO)C(=O)Cc2cc(NC(=O)Nc3ccc(Cl)c(Cl)c3)ccc2O[C@H]1CN(C)S(=O)(=O)c1ccc(Oc2ccccc2)cc1 in this test
[reply] inactive

[ask] Please let me know the test result on file for C[C@H]1CCCCO[C@@H](CN(C)C(=O)CCC(F)(F)F)[C@@H](C)CN([C@@H](C)CO)C(=O)c2cc(NS(=O)(=O)c3ccc(F)cc3)ccc2O1 .
[reply] inactive

[ask] How was CO[C@H]1CN(C)C(=O)c2ccc(NS(C)(=O)=O)cc2OC[C@@H](C)N(C(=O)CN(C)C)C[C@H]1C classified in this test?
[reply] inactive

[ask] Test call for this molecule, please: C[C@H](CO)N1C[C@H](C)[C@@H](CN(C)S(=O)(=O)c2cccs2)Oc2ccc(NC(=O)C3CC3)cc2CC1=O
[reply] inactive

[ask] What did this assay record as the result for Cc1noc(C)c1S(=O)(=O)Nc1ccc2c(c1)C(=O)N([C@H](C)CO)C[C@H](C)[C@@H](CN(C)Cc1ccccc1)O2 ?
[reply] inactive
